protocol notes: Cell Viability - Mesenchymal (AID 546);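 further: cells exposed to compound for 40 hours before reading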
assay context: mesenchymal cells viability, qHTS; series mostly up to 91.7 µM
Excerpt: NIH Chemical Genomics Center [NCGC] NIH Molecular Libraries Screening Centers Network [MLSCN] National Institutes of Environmental Health Sciences [NIEHS] National Toxicology Program [NTP] We have developed a 1536-well cell-based assay for quantitative high throughput screening (qHTS) against a number of cell lines to determine in vitro cytotoxicity of small molecules. […] 8. Detection; Luminescence; Viewlux plate reader […]
Results filed as inconclusive are left out. Calls of active or inactive are those of the source. The call rests on the fitted dose curve; in most records, active means well fitted cell-killing curve with a large enough effect; inconclusive means small, poorly fitted or top-dose-only effect; inactive means flat fitted curve, though single readings scatter.
Choose the fitting class; nothing outside TRUE (active), FALSE (inactive) is accepted.

Look over these answered cases.
compound	label
COS(C)(=O)=O	FALSE
CN(C)CCOC(c1ccccc1)c1ccccc1 (tested in a mixture with another compound)	TRUE
C=C(C)[C@H]1CC=C(C)C(=O)C1	FALSE
Cc1occc(=O)c1O	FALSE
C=CC(C)(O)CCC=C(C)C (stereo unspecified)	FALSE

Please examine the following record next.
Exercise: Check the results log: what was the call for CC1=CC(=O)CC(C)(C)C1(O)/C=C/C(C)=C\C(=O)O (stereo unspecified) ?
Solution: FALSE

Provenance of the data: PubChem BioAssay (NCATS)
